All figures here come from patent US20260007613A1.

The entries below are paired with their reported Multiples (YK-310).
Tested on: 293T cells
measurement-notes: Fluorescent detection of Fluc-mRNA (cell transfection efficiency of LNP formulations)
Format: cell-based
run-conditions: RLU of YK-310 / RLU of the lipid of the line
Procedure: Cell recovery and passage: 293T cells were recovered, cultured in a culture dish, and passaged to the required number of cells. Seeding plate: The cells in the culture dish were digested and counted. Cells were spread in a 96-well plate at 10,000 cells per well and in a 12-well plate at 150,000 cells per well. Cells were cultured overnight until the cells adhered to the wall. Cell recovery and passage: the method was the same as in Example 3. Seeding plate: the method was the same as in Example 3. […]
The answer should be a number; do not append a unit.

Examples from the recorded data:
INSERT INTO measurements (compound, quantity, recorded_measurement) VALUES
  ('CCCCCCCCCCOC(=O)CCCN(CCO)CCCCCC(=O)OCC(CCCCCCCC)CCCCCCCC [YK-009, reference compound]', 'Multiples (YK-310)', 5.04),
  ('CCCCCCCCC(CCCCCCCC)COC(=O)CCCCCN(CCCCCC(=O)OCC(CCCCCCCC)CCCCCCCC)C[C@H](O)CN(CCO)CCO', 'Multiples (YK-310)', 5.36),
  ('CCCCCCCCCCC(CCCCCCCCCC)CCCOC(=O)CCCN(CCCC(=O)OCCCC(CCCCCCCCCC)CCCCCCCCCC)C[C@H](O)CN(CCO)CCO', 'Multiples (YK-310)', 18.38);

Q) Param request: Multiples (YK-310) | system 293T cells | item CCCCCCCCC(CCCCCCCC)OC(=O)CCCCCCCN(CCCCCCCC(=O)OC(CCCCCCCC)CCCCCCCC)C[C@H](O)CN(CC)CCO
A) 47.12

Q) Param request: Multiples (YK-310) | system 293T cells | item CCCCCCC(CCCCCC)CCOC(=O)CCCCCN(CCCCCC(=O)OCCC(CCCCCC)CCCCCC)C[C@H](O)CN(CC)CCO
A) 13.14

Q) Param request: Multiples (YK-310) | system 293T cells | item CCCCCCCCC(CCCCCC)C(=O)OCCCCCCN(CCCCO)CCCCCCOC(=O)C(CCCCCC)CCCCCCCC (stereo not drawn) [ALC-0315, reference compound]
A) 12.69

====

The entries below are paired with their reported cell survival rate higher than YK-314.
System: 293T cells
measurement-notes: Cell survival rate determination (CCK-8)
Type: cell-based
run-conditions: difference of survival rates; comparator YK-314
Hi! Could you send only the number? It should be in %, unit omitted.

Q) Identify measured cell survival rate higher than YK-314 corresponding to CCCCCCCCC(CCCCCCCC)COC(=O)CCCCCN(CCCCCC(=O)OCC(CCCCCCCC)CCCCCCCC)C[C@H](O)CN(CC)CCO [YK-312]
A) 9.08

Q) Identify measured cell survival rate higher than YK-314 corresponding to CCCCCCCCC(CCCCCCCC)COC(=O)CCCCCN(CCCCCC(=O)OCC(CCCCCCCC)CCCCCCCC)C[C@H](O)CN(C)CCO [YK-305]
A) 14.30

Q) Identify measured cell survival rate higher than YK-314 corresponding to CCCCCCCCC(CCCCCCCC)OC(=O)CCCCCN(CCCCCC(=O)OC(CCCCCCCC)CCCCCCCC)C[C@H](O)CN(CCO)CCO [YK-318]
A) 7.68

Q) Identify measured cell survival rate higher than YK-314 corresponding to CCCCCCCCCCCOC(=O)CCCCCN(CCCC(=O)OCCCC(CCCCCCCCCC)CCCCCCCCCC)C[C@H](O)CN(CC)CCO [YK-310]
A) 14.22

Q) Identify measured cell survival rate higher than YK-314 corresponding to CCCCCCC(CCCCCC)CCOC(=O)CCCCCCN(CCCCCCC(=O)OCCC(CCCCCC)CCCCCC)C[C@H](O)CN(CCO)CCO [YK-319]
A) 7.33

====

The entries below are paired with their reported average radiation intensity, times that of compound 21.
Tested on: female BALB/C mice
measurement-notes: Live imaging in mice: protein expression of Fluc-mRNA delivered by LNP formulations
Format: in vivo
run-conditions: 6 h; comparator compound 21
Hi! Could you send only the number? It should be in times, unit omitted.

Examples from the recorded data:
INSERT INTO assay_data (cpd_smiles, output_unit, recorded_measurement) VALUES
  ('CCCCCCCCCCCOC(=O)CCCCCN(CCCC(=O)OCCCC(CCCCCCCCCC)CCCCCCCCCC)C[C@H](O)CN(CC)CCO', 'times', 14.95),
  ('CCCCCCCCC(CCCCCCCC)COC(=O)CCCCCN(CCCCCC(=O)OCC(CCCCCCCC)CCCCCCCC)C[C@H](O)CN(C)CCO', 'times', 15.14),
  ('CCCCCCC(CCCCCC)CCOC(=O)CCCCCCN(CCCCCCC(=O)OCCC(CCCCCC)CCCCCC)C[C@H](O)CN(CCO)CCO', 'times', 13.49),
  ('CCCCCCCCC(CCCCCCCC)OC(=O)CCCCCN(CCCCCC(=O)OC(CCCCCCCC)CCCCCCCC)C[C@H](O)CN(CCO)CCO', 'times', 5.45);

Kindly review the next molecule as well.
Q) Identify measured average radiation intensity, times that of compound 21 corresponding to CCCCCCCCC(CCCCCCCC)COC(=O)CCCCCN(CCCCCC(=O)OCC(CCCCCCCC)CCCCCCCC)C[C@H](O)CN(CC)CCO
A) 13.12

====

The entries below are paired with their reported cell survival rate higher than YK-315.
System: 293T cells
measurement-notes: Cell survival rate determination (CCK-8)
Format: cell-based
run-conditions: difference of survival rates; comparator YK-315

Q) Identify measured cell survival rate higher than YK-315 corresponding to CCCCCCCCCCCOC(=O)CCCCCN(CCCC(=O)OCCCC(CCCCCCCCCC)CCCCCCCCCC)C[C@H](O)CN(CC)CCO
A) 10.82%

Q) Identify measured cell survival rate higher than YK-315 corresponding to CCCCCCCCC(CCCCCCCC)COC(=O)CCCCCN(CCCCCC(=O)OCC(CCCCCCCC)CCCCCCCC)C[C@H](O)CN(CC)CCO
A) 5.68%

Q) Identify measured cell survival rate higher than YK-315 corresponding to CCCCCCCCC(CCCCCCCC)COC(=O)CCCCCN(CCCCCC(=O)OCC(CCCCCCCC)CCCCCCCC)C[C@H](O)CN(C)CCO
A) 10.90%

Q) Identify measured cell survival rate higher than YK-315 corresponding to CCCCCCCCC(CCCCCCCC)OC(=O)CCCCCN(CCCCCC(=O)OC(CCCCCCCC)CCCCCCCC)C[C@H](O)CN(CCO)CCO
A) 4.28%

Q) Identify measured cell survival rate higher than YK-315 corresponding to CCCCCCC(CCCCCC)CCOC(=O)CCCCCCN(CCCCCCC(=O)OCCC(CCCCCC)CCCCCC)C[C@H](O)CN(CCO)CCO
A) 3.93%

====

Tested on: 293T cells
measurement-notes: Fluorescent detection of Fluc-mRNA (cell transfection efficiency of LNP formulations)
Format: cell-based
run-conditions: RLU of YK-319 / RLU of the lipid of the line; Tables 5, 7, 11
Label True when Multiples (YK-319) < 5; otherwise False.

Completed entries (count: 4):
INSERT INTO results (molecule, assigned_category) VALUES
  ('CCCCCCCCCCCOC(=O)CCCCCN(CCCC(=O)OCCCC(CCCCCCCCCC)CCCCCCCCCC)C[C@H](O)CN(CC)CCO', 'True'),
  ('CCCCCCCCCCOC(=O)CCCN(CCCCCC(=O)OCCC(CCCCCC)CCCCCC)C[C@H](O)CN(C)CCO', 'False'),
  ('CCCCCCC(CCCCCC)CCOC(=O)CCCCCCCN(CCO)CCCCCCCC(=O)OCCC(CCCCCC)CCCCCC [Compound 23, reference compound]', 'False'),
  ('CCCCCCCCCCC(CCCCCCCCCC)CCCOC(=O)CCCN(CCCC(=O)OCCCC(CCCCCCCCCC)CCCCCCCCCC)C[C@H](O)CN(CCO)CCO', 'False');

With those in mind, consider the next molecule.
Q) I'd appreciate it if you could check whether CCCCCCCCCCC(CCCCCCCCCC)CCCOC(=O)CCCN(CCCC(=O)OCCCC(CCCCCCCCCC)CCCCCCCCCC)C[C@H](O)CN(C)CCO has Multiples (YK-319) smaller than 5.
A) False

====

The entries below are paired with their reported Multiples (YK-319).
Tested on: 293T cells
measurement-notes: Fluorescent detection of Fluc-mRNA (cell transfection efficiency of LNP formulations)
Assay type: cell-based
run-conditions: RLU of YK-319 / RLU of the lipid of the line; Tables 5, 7, 11
The answer should be a number; do not append a unit.

Examples from the recorded data:
INSERT INTO results (compound, quantity, recorded_measurement) VALUES
  ('CCCCCCCCC(CCCCCCCC)COC(=O)CCCCCN(CCCCCC(=O)OCC(CCCCCCCC)CCCCCCCC)C[C@H](O)CN(C)CCO [YK-305]', 'Multiples (YK-319)', 0.89),
  ('CCCCCCC(CCCCCC)CCOC(=O)CCCCCCN(CCCCCCC(=O)OCCC(CCCCCC)CCCCCC)C[C@H](O)CN(CCO)CCO [YK-319]', 'Multiples (YK-319)', 1.00),
  ('CCCCCCCCCCCOC(=O)CCCCCN(CCO)CCCCCCCC(=O)OC(CCCCCCCC)CCCCCCCC [SM-102, reference compound]', 'Multiples (YK-319)', 15.25),
  ('CCCCCCCCC(CCCCCC)C(=O)OCCCCCCN(CCCCO)CCCCCCOC(=O)C(CCCCCC)CCCCCCCC (stereo not shown) [ALC-0315, reference compound]', 'Multiples (YK-319)', 12.03),
  ('CCCCCCCCC(CCCCCCCC)OC(=O)CCCCCCCN(CCO)CCCCCCCC(=O)OCCC(CCCCCC)CCCCCC [Compound 21, reference compound]', 'Multiples (YK-319)', 17.08),
  ('CCCCCCCCCCCCC(O)CN(C)CCCCCC(=O)OCC(CCCCCC)CCCCCCCC (stereo not shown) [HHMA, reference compound]', 'Multiples (YK-319)', 12.20);

Kindly review the next compound as well.
Q) Identify measured Multiples (YK-319) corresponding to CCCCCCCCCCOC(=O)CCCN(CCO)CCCCCC(=O)OCC(CCCCCCCC)CCCCCCCC [YK-009, reference compound]
A) 4.78
